Quick list: % Inhibition PCSK9 per entry.
- targetOfAssay: PCSK9 (Homo sapiens)
- Sequence (Q8NBP7 153-692): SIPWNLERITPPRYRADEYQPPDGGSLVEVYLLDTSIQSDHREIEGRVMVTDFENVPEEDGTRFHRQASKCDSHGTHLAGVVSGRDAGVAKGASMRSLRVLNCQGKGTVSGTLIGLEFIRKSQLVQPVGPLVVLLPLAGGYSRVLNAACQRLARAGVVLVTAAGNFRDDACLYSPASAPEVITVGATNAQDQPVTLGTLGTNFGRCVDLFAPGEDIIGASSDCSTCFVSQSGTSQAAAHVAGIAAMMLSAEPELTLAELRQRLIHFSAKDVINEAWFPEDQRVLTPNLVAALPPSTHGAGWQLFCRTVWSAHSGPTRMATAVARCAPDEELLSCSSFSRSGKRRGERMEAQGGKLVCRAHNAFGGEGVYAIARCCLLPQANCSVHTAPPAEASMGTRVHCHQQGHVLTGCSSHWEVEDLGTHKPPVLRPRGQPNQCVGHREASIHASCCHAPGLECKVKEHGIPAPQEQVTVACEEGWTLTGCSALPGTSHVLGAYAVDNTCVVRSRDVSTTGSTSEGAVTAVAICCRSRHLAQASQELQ
- Sequence (Q8NBP7 31-152 partner limits assumed): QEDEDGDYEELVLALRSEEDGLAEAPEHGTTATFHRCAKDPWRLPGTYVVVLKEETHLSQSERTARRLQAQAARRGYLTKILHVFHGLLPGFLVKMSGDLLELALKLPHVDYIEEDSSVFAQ
- protocolDescription: PCSK9-LDLR in vitro Binding Assay (ELISA)
- conditionLabel: Concentration 100 μM; 100 µM
Provide the reading as a plain figure in %.

Here's what some known entries look like.
molecule	quantitativeResult
Cc1oc(-c2ccncc2)nc1CC1COC(C)(C(=O)NCC(=O)NCC2CCOCC2)OC1 (stereo not drawn) [Example 89]	10
Cc1ccc(-c2nc(CC3COC(C)(C(=O)N4CCOCC4)OC3)c(C)o2)cc1 (stereo not drawn) [Example 67]	25
Cc1oc(-c2ccccc2)nc1CCC1COC(C)(C(=O)NO)OC1 (stereo not drawn) [Example 35]	19
Cc1oc(-c2ccncc2)nc1CC1COC(C)(C(=O)NCC2CCOCC2)OC1 (stereo not drawn) [Example 85]	44
Cc1oc(-c2ccncc2)nc1CC1COC(C)(C(=O)NCC(=O)N2CCOCC2)OC1 (stereo not drawn) [Example 87]	7

% Inhibition PCSK9 for PCSK9 (Homo sapiens) with input Cc1ccc(-c2nc(CC3COC(C)(C(=O)N4CCOCC4)OC3)c(C)o2)s1 (stereo not drawn) [Example 76] equals 27

% Inhibition PCSK9 for PCSK9 (Homo sapiens) with input Cc1ccc(-c2nc(CC3COC(C)(C(=O)NCC4CCOCC4)OC3)c(C)o2)s1 (stereo not drawn) [Example 74] equals 27

% Inhibition PCSK9 for PCSK9 (Homo sapiens) with input Cc1ccc(-c2nc(CC3COC(C)(C(=O)N4CCOCC4)OC3)c(C)o2)s1 (stereo not drawn) [Example 77] equals 16

% Inhibition PCSK9 for PCSK9 (Homo sapiens) with input Cc1oc(-c2ccncc2)nc1CC1COC(C)(C(=O)NO)OC1 (stereo not drawn) [Example 81] equals 23

Reference for the values: patent US20120252796A1
